tgt: T1, MDM2 (res 2-125) (UniProt Q00987 2-125)
T1 construct: range 2-125; Titrant in the fluorescence anisotropy experiments
assayRemarks: fluorescence anisotropy titration, excitation 280 nm, 23 C, PBS, 5 mM DTT
*1 amine or outer side, *2 acyl side, *3 side chain or, on linkers, in order; H or OH if unused. Bridges are numbered along the chain shown (N, C = ends). TBMB = c1c(C[*:1])cc(C[*:3])cc1C[*:2]
recordedEndpoint: pKd
Numbers only, as −log10 of the molar value.

Task: Requested read-out: pKd. Entry: H-SCVRFGWTCDNSWHGCKG-OH (linker 2-9-16 via TBMB, The anisotropy paragraph says only 'peptides 10, 48'; also called peptide 48) [PEP48 synthetic peptide conjugated with TBMB]
Result: 6.12
